ASSAY SYSTEM: SARS-CoV-2 Spike Protein (S1 Subunit, Fc Tag) (Sino 40591-V02H) (SARS-CoV-2, UniProt P0DTC2 16-685)
PROTOCOL SUMMARY: Luminex bead assay, antibody supernatant, antigen on microspheres
READOUT TYPE: Binding signal (MFI)
Numbers only here, please. The scale is MFI.

input: State the recorded Binding signal (MFI) for this entry: mAb10921 (antibody, V domains shown) VH: EVQLVESGGGLVQPGGSLRLSCAASGITVSSNYMSWVRQAPGKGLEWVSVIYSGGSTFYADSVKGRFTISRHNSKNTLYLQMNSLRAEDTAVYYCARERNFDAFDIWGQGTMVTVSS VL: DIQMTQSPSSVSASVGDRVTITCRASQGISSWLAWYQQKPGKAPKLLIYAASSLQSGVPSRFSGSGSGTDFTLTISSLQPEDFATYYCQQANSFPLFTFGPGTKVDIKR
output: 8960

This collection of values is drawn from patent US20220356230A1.
